# ASSAY SUMMARY: chemical genetic growth profiling, strain panel (AID 1159580);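 also: tested at 20 µM; growth read once vehicle control cultures reached saturation at 30 °C; 1 = growth at the plate median or of vehicle wells; lower values mean less growth of the strain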
# MEASUREMENT CONTEXT: S. cerevisiae deletion strains, growth OD, locus YER111C, strain swi4, hits give low values
In all, about 5,500 compounds went through this assay and about 2,000 (36%) were called active. Roughly 18% stayed inconclusive and do not appear here. The list shows a part of the results.
ENDPOINT NAME: normalized growth
Numbers only.

>  <COMPOUND>
Clc1ccc2c(c1)C(N1CCNCC1)=Nc1ccccc1O2

>  <ASSAY VALUE>
0.984

$$$$

For every record below, what is its normalized growth?
1. CNC(=O)Oc1ccc2c(c1)[C@]1(C)CCN(C)[C@@H]1N2C
2. COc1c2ccoc2nc2c(OC)c(OCC(O)C(C)(C)O)ccc12 (stereo not drawn)

Response line:
1.01
1.02

----------
# ASSAY SUMMARY: chemical genetic growth profiling, strain panel (AID 1159580);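 also: tested at 20 µM; growth read once vehicle control cultures reached saturation at 30 °C; 1 = growth at the plate median or of vehicle wells; lower values mean less growth of the strain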
# MEASUREMENT CONTEXT: S. cerevisiae deletion strains, growth OD, locus YDR363W, strain ESC2, hits give low values
The campaign covered roughly 5,500 compounds. About 2,000 (36%) were called active. About 18% were inconclusive and are not listed. Some of the results follow.
Hi! Could you tag entries with normalized growth below 1 as Satisfied, and those at or above as Not satisfied? Much appreciated.

Before answering, review these 4 worked examples.
>  <COMPOUND>
CN1CCN(C2=Nc3ccccc3Oc3ccc(Cl)cc32)CC1

>  <LABEL>
Satisfied

$$$$
>  <COMPOUND>
Cc1[nH]c(=O)c(C#N)cc1-c1ccncc1

>  <LABEL>
Not satisfied

$$$$
>  <COMPOUND>
NC(=NCCCC(N)C(=O)O)N[N+](=O)[O-] (stereo not given)

>  <LABEL>
Not satisfied

$$$$
>  <COMPOUND>
NS(=O)(=O)c1cc2c(cc1Cl)NC(C1CC3C=CC1C3)NS2(=O)=O (stereo not given)

>  <LABEL>
Satisfied

$$$$

Read the next record carefully.
Prompt line: is_below(normalized growth, 1) for CNC(=O)[C@H]1O[C@@H](n2cnc3c(NCc4ccc(I)cc4)nc(Cl)nc32)[C@H](O)[C@@H]1O ?
Response line: Satisfied

----------
Please provide measured normalized growth for the entries that follow.
# ASSAY SUMMARY: chemical genetic growth profiling, strain panel (AID 1159580);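 also: tested at 20 µM; growth read once vehicle control cultures reached saturation at 30 °C; 1 = growth at the plate median or of vehicle wells; lower values mean less growth of the strain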
# MEASUREMENT CONTEXT: S. cerevisiae deletion strains, growth OD, locus YKL068W, hits give low values
Screen size: about 5,500 compounds; about 2,000 (36%) were called active. Another 18% or so got no clear call; they are omitted. The list shows a part of the results.
Give bare numbers.

>  <COMPOUND>
Cc1cc(O)c(C=O)c2c1C(=O)Oc1c(COC(=O)/C=C/C(=O)O)c(O)c(C(=O)O)c(C)c1O2

>  <normalized growth>
0.993

$$$$
>  <COMPOUND>
COc1cc2c(cc1/C=C/C(=O)c1cc(OC)c(OC)cc1OC)OCO2

>  <normalized growth>
1

$$$$

As a next step, examine the compound that follows.
The recorded normalized growth for entry CC1CC2C3CC(F)C4=CC(=O)C=CC4(C)C3(F)C(O)CC2(C)C1C(=O)COC(=O)C(C)(C)C (stereo not drawn) equals 1.02

----------
# ASSAY SUMMARY: chemical genetic growth profiling, strain panel (AID 1159580);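 also: tested at 20 µM; growth read once vehicle control cultures reached saturation at 30 °C; 1 = growth at the plate median or of vehicle wells; lower values mean less growth of the strain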
# MEASUREMENT CONTEXT: S. cerevisiae deletion strains, growth OD, locus YLR102C, strain apc9, hits give low values
About 2,000 (36%) of roughly 5,500 compounds were called active. Another 18% or so got no clear call; they are omitted. The list shows a part of the results.
ENDPOINT NAME: normalized growth
One number for each entry.

>  <SMILES REPR>
CNC(=O)Oc1ccc2c(c1)[C@]1(C)CCN(C)[C@@H]1N2C

>  <ASSAY VALUE>
1

$$$$
>  <SMILES REPR>
CCOC(=O)[C@H](CCc1ccccc1)N[C@@H](C)C(=O)N1Cc2ccccc2C[C@H]1C(=O)O

>  <ASSAY VALUE>
1.01

$$$$

Switching to the query record.
Field normalized growth (entry CCN(CC)CCOC(=O)C(c1ccccc1)c1ccccc1 ) reads 0.988

# credit: PubChem BioAssay AID1159580
